- Test system: SF-295 CNS
- test-description: NCI tumour cell line growth inhibition, 48 h
This listing pairs molecules with measured TGI.

{"columns": ["molecule", "unit-symbol", "rel", "TGI"],
 "data": [
  ["O=C(OCCN1CCCCC1)C(c1ccccc1)C1(O)CCSCC1 (stereo not given)", "µM", ">", 100],
  ["CC(=O)NC1C(OCc2ccccc2)OC(CO)C(O)C1OCC(=O)NC(C)C(=O)NC(CCC(=O)NCCCCCNc1c2ccccc2nc2cccc([N+](=O)[O-])c12)C(N)=O (stereo not given)", "µM", "=", 0.0265],
  ["CN(C)C(=S)NN=C(c1ccccn1)c1ccccn1", "µM", "=", 18.6],
  ["CO/C(=N\\N=C\\c1ccc(Cl)cc1Cl)c1ccncc1", "µM", ">", 10],
  ["Cc1ccc(NC(=S)Nc2c(C)n(C)n(-c3ccccc3)c2=O)cc1", "µM", ">", 100],
  ["O=S(=O)([O-])[O-].[Cl-].[NH2-].[NH2-].[NH2-].[NH2-].[Ru+3].c1ccc(-c2cccnc2)cc1", "µM", ">", 100],
  ["Cc1ccc(S(=O)(=O)NC(=O)NCCC(=O)O)cc1", "µM", ">", 100],
  ["NC(N)=N/N=C/c1c(-c2cccs2)nc2sccn12", "µM", "=", 23.6],
  ["Nc1ccc(N=Nc2ccccc2)c(N)n1", "µM", "=", 50.9],
  ["CC1(C)[C@@H](Cn2cnc3c(=O)[nH]c(N)nc32)CC[C@@]1(C)CO", "µM", ">", 100]
]}

###

- System: A549 NSCLC
- test-description: NCI tumour cell line growth inhibition, 48 h; in the data active = GI50 below about 0.43 µM; inactive = the rest
Labels: yes = active, no = inactive

{"columns": ["compound", "class-label"],
 "data": [
  ["Cn1c(=O)c(Oc2cccc(F)c2)cc2cnc(NC3CCOCC3)nc21", "no"],
  ["O=CN1N=C(c2ccc(Nc3ccnc4cc(Cl)ccc34)cc2)CC1c1ccccc1 (centres undefined)", "no"],
  ["Nc1nc2c(c3ncccc13)C(c1ccc(Cl)c(Cl)c1)Cc1ncccc1-2 (centres undefined)", "no"],
  ["C=C1C(=O)O[C@H]2[C@H]1CC/C(CNC(=O)/C=C/c1cccc(OC)c1)=C\\CC[C@@]1(C)O[C@@H]21", "no"],
  ["CC/C=C\\C/C=C\\C[C@H](O)C/C=C1/C(=O)C=C[C@H]1C/C=C\\CCC(=O)OC", "no"],
  ["CNC(=O)c1c(NC(=O)c2cccc(C(F)(F)F)c2)sc2c1CCC(=O)C2", "yes"],
  ["COc1cc([C@@H]2c3cc4c(cc3C(Br)[C@H]3COC(=O)[C@H]23)OCO4)cc(OC)c1OC (some centres undefined)", "yes"],
  ["NC1CCCCC1N.O=C([O-])P(=O)([O-])[O-].[Na+].[Pt+4] (centres undefined)", "no"],
  ["CCOC(=O)c1cc2c(n1Cc1cc(OC)cc(OC)c1)-c1oncc1CCC2", "yes"]
]}

###

- Test system: SR leukemia
- test-description: NCI tumour cell line growth inhibition, 48 h
# reported TGI; entries follow

{"columns": ["compound", "TGI"],
 "data": [
  ["CO/C(=N\\N=C\\c1ccc(Cl)cc1Cl)c1ccncc1", "> 10 µM"],
  ["O=CN1N=C(c2ccc(Nc3ccnc4cc(Cl)ccc34)cc2)CC1c1ccccc1 (centres undefined)", "4.9 µM"],
  ["COC(=O)/C=C\\C(C#N)(C#N)N=Cc1ccc(C)s1", "8.17 µM"],
  ["CC(C)[C@H]1NC(=O)[C@H]2N=C(O[C@@H]2C)[C@@H]2CCCN2C(=O)[C@H](Cc2ccccc2)NC(=O)[C@@H]2CSC(=N2)[C@@H](Cc2ccccc2)NC(=O)[C@@H]2CSC1=N2", "> 100 µM"],
  ["CCN(CC)CCOc1ccc(Nc2ncc3cc(-c4c(Cl)cccc4Cl)c(=O)n(CCOC)c3n2)cc1", "2.15 µM"],
  ["CN(C)c1ccc(C(=O)c2ccc(N(C)C)c(N)c2)cc1N", "> 16.4 µM"],
  ["NS(=O)(=O)c1ccc(C2C3=C(CCCC3=O)OC3=C2C(=O)c2ccccc2C3=O)cc1 (centres undefined)", "3.88 µM"],
  ["Cn1cc(NC(=O)c2cc(NC(=O)Nc3cc(C(=O)Nc4cc(C(=O)NCCC(=N)N)n(C)c4)n(C)c3)cn2C)cc1C(=O)NCCC(=N)N", "> 100 µM"],
  ["CC(NC1=NCCO1)c1cccc([N+](=O)[O-])c1 (centres undefined)", "> 100 µM"],
  ["O=S(=O)([O-])[O-].[Cl-].[NH2-].[NH2-].[NH2-].[NH2-].[Ru+3].c1ccc(-c2cccnc2)cc1", "> 100 µM"],
  ["CC(=O)O[C@H]1CC[C@@]2(C)C(CC[C@]3(C)C2CC[C@]2(C)Oc4c(C)cc(O)cc4C[C@@H]23)C1(C)C (some centres undefined)", "7.12 µM"],
  ["COc1ccc(-c2nsc3c2NC(=O)CC3c2ccc3c(c2)OCO3)cc1 (centres undefined)", "39.3 µM"],
  ["CCN(CC)c1ccc(N=C2C=C(C(=O)Nc3ccc(S(C)(=O)=O)cc3)C(=O)c3ccccc32)c(C)c1", "> 100 µM"],
  ["Nc1ccc(N=Nc2ccccc2)c(N)n1", "> 100 µM"],
  ["O=c1[nH]cnc2c1nnn2C1OC(CO)C(O)C1O (centres undefined)", "> 100 µM"],
  ["COc1ccc(/C=C(\\C(=C/c2ccc(OC)cc2)[N+](=O)[O-])[N+](=O)[O-])cc1", "> 100 µM"],
  ["Cc1ccc(C(=O)O/N=C2/CCCCC2CN(C)C)cc1 (centres undefined)", "> 100 µM"],
  ["Cn1c(=O)c(Oc2cccc(F)c2)cc2cnc(NC3CCOCC3)nc21", "> 25 µM"],
  ["CCCCCCCCCCCCCC[P+](CCCCCC)(CCCCCC)CCCCCC", "0.0608 µM"]
]}

###

- Tested on: SF-295 CNS
- test-description: NCI tumour cell line growth inhibition, 48 h

{"columns": ["compound", "rel", "TGI (µM)"],
 "data": [
  ["C[C@@H]1COCCN1c1nc(-c2cnc(N)cc2C(F)F)nc(N2[C@H](C)COC[C@@H]2C)n1", "=", 1.69],
  ["CC/C=C\\C/C=C\\C[C@H](O)C/C=C1/C(=O)C=C[C@H]1C/C=C\\CCC(=O)OC", ">", 8.25],
  ["CN(C)c1ccc(/C=C/C(=O)C(C)(C)C)cc1Br", ">", 100],
  ["CC(=O)O[C@H]1CC[C@@]2(C)C(CC[C@]3(C)C2CC[C@]2(C)Oc4c(C)cc(O)cc4C[C@@H]23)C1(C)C (stereo partly drawn)", "=", 5.09],
  ["COc1cc2c(c(OC)c1OC)-c1ccc(NNC(=S)N(Cc3cccc(C[N+](Cc4cccc(CNC56CC7CC(CC(C7)C5)C6)c4)(Cc4cccc(CNC56CC7CC(CC(C7)C5)C6)c4)Cc4cccc(CN(C(=S)NNc5ccc6c(cc5=O)[C@@H](NC(C)=O)CCc5cc(OC)c(OC)c(OC)c5-6)C56CC7CC(CC(C7)C5)C6)c4)c3)C34CC5CC(CC(C5)C3)C4)c(=O)cc1[C@@H](NC(C)=O)CC2 (stereo partly drawn)", "=", 5.92],
  ["Cc1ccc(C(=O)O/N=C2/CCCCC2CN(C)C)cc1 (stereo not drawn)", ">", 100],
  ["CNS(=O)(=O)NN(C)S(=O)(=O)c1ccc(Cl)cc1", ">", 100],
  ["O=CN1N=C(c2ccc(Nc3ccnc4cc(Cl)ccc34)cc2)CC1c1ccccc1 (stereo not drawn)", "=", 8.91]
]}

###

- Test system: NCI-H522 lung
- test-description: NCI tumour cell line growth inhibition, 48 h
Each entry below lists one item and its recorded TGI value.
measurement-kind: TGI (µM)

{"columns": ["compound", "unit-symbol", "rel", "observed-value"],
 "data": [
  ["Nc1ccc(-c2nc3ccccc3[nH]2)c(O)c1", "µM", ">", 100],
  ["OCc1cccc(-c2ccc3ncc(-c4nc(NC5CC5)ncc4F)n3c2)c1", "µM", "=", 2.34],
  ["CCON=C1C(C)(C)C(C)(C)C(C)(C)C1(C)C", "µM", ">", 100],
  ["O=C1CCC2(CC1CCSc1ccccc1)OCCO2 (stereo not given)", "µM", ">", 100],
  ["CC(=O)NC1C(OCc2ccccc2)OC(CO)C(O)C1OCC(=O)NC(C)C(=O)NC(CCC(=O)NCCCCCNc1c2ccccc2nc2cccc([N+](=O)[O-])c12)C(N)=O (stereo not given)", "µM", "=", 0.0045]
]}

###

Catalogue of TGI readings, one per entry.
- Test system: A498 renal
- test-description: NCI tumour cell line growth inhibition, 48 h

{"columns": ["molecule", "TGI"],
 "data": [
  ["O=S(=O)([O-])[O-].[Cl-].[NH2-].[NH2-].[NH2-].[NH2-].[Ru+3].c1ccc(-c2cccnc2)cc1", "> 100 µM"],
  ["CCNc1c(C(=O)N(CC)CC)c(=O)[nH]c2ncccc12", "> 100 µM"],
  ["Nc1ccccc1NC(=O)CCCCCCC(=O)Nc1ccc2c(c1)/C(=C/c1ccc[nH]1)C(=O)N2", "> 100 µM"],
  ["Cc1cccc2nc3cccc(C(=O)NCCC[N+](C)(CCCNC(=O)c4cccc5nc6cccc(C)c6nc45)Cc4c([N+](=O)[O-])ncn4C)c3nc12", "> 1100 µM"],
  ["C[C@]12CC/C(=N\\N)C[C@@H]1CC[C@@H]1[C@@H]2CC[C@]2(C)/C(=N/N)CC[C@@H]12", "> 100 µM"],
  ["N#Cc1c2ccccc2c2n1-c1ccccc1OC(c1ccccc1)C2=O (centres undefined)", "6.89 µM"],
  ["CCN(CC)c1ccc(N=C2C=C(C(=O)Nc3ccc(S(C)(=O)=O)cc3)C(=O)c3ccccc32)c(C)c1", "> 100 µM"],
  ["CCON=C1C(C)(C)C(C)(C)C(C)(C)C1(C)C", "> 100 µM"],
  ["COc1ccc(/C=C2\\CC3C4CC=C5C[C@@H](O)CC[C@]5(C)C4CC[C@]3(C)\\C2=N\\O)cc1OC (some centres undefined)", "86.2 µM"]
]}
